# Tested on: Plasmodium berghei
# assay_details: Screen against P. berghei liver stage (PbLuc), transformed with Luciferase, at 2uM
# Type: functional, HepG2
# cond: tested at 2 uM
In all, about 68,000 compounds went through this assay and about 2,700 (4%) showed an effect of 50% or more. The list comes from a sample in which strong results are over-represented; it also holds close analogues and randomly drawn compounds.
# if value of INHIBITION reaches 30%, tag rule met; if it stays below, tag rule not met

molecule	category_label
COc1ccc(C(=O)N2CC(c3ccncc3)C2)c(OC)c1OC	rule met
O=C(Nc1cn[nH]c1)c1ccc(O)nc1	rule met
CC(=O)NCCNC(=O)C1(N2CCCCC2)Cc2ccccc2C1	rule not met
O=C1OCCN1CCNC(=O)C1(N2CCCCC2)Cc2ccccc2C1	rule met
CCN(CC)C(CNCc1ccc(C)o1)c1ccco1 (configuration not stated)	rule not met
CC(=O)c1cn(CC(=O)NC(C(=O)O)C(C)C)c2ccccc12 (configuration not stated)	rule not met
Cc1cccc(CN2CCC3(CC2)CN(c2cnn(C)c2)C(=O)CO3)n1	rule not met
c1cncc(-c2ncnc3c2CCN(Cc2cccs2)CC3)c1	rule not met
O=C(NC1CCC1)[C@H]1C[C@H]2CN(S(=O)(=O)c3ccccc3)C[C@@H]1O2	rule not met
CN1[C@H](Cn2cncn2)C[C@@H]2CN(Cc3cccc(C#N)c3)CC[C@@H]21	rule not met
CN(C)C(=O)COCC1CN(Cc2ccco2)Cc2ncn(C)c21 (configuration not stated)	rule not met
c1cnc2[nH]c(C3CCNCC3)c(CN3CCOCC3)c2c1	rule not met
COCCn1/c(=N\C(=O)CN(C)S(C)(=O)=O)sc2cc(OC)ccc21	rule not met
Cn1cc(CN2CC[C@H](O)[C@@H]2Cc2ccncc2)cn1	rule not met
Cn1c(CCNc2nccnc2C#N)nc2ccc(F)cc21	rule not met
CCCS(=O)(=O)N1C[C@H]2CC[C@@H](C1)N(Cc1cscn1)C2=O	rule met

----------
# Tested on: Plasmodium berghei
# assay_details: Screen against P. berghei liver stage (PbLuc), transformed with Luciferase, at 2uM
# Assay type: functional, HepG2
# cond: tested at 2 uM
Screen size: about 68,000 compounds; about 2,700 (4%) showed an effect of 50% or more. For the sample, strong results were picked, then their nearest neighbours and some compounds at random.

molecule	value_units	INHIBITION
CN(C)Cc1cnc2n1CCN(C(=O)Cc1ccc(F)cc1)CC2	%	8.41
COc1ccnc(C(=O)N2CCCC(c3noc(C)n3)C2)c1 (configuration not stated)	%	11.71
CCc1cnc(N2CCCOC(CN3CCCC3)C2)nc1 (configuration not stated)	%	-30.18
Cc1csc(N2CCCN(C(=O)c3c(C)noc3C)CC2)n1	%	24.65
Cc1nc(CC(=O)N2CCC(Nc3cccnn3)CC2)cs1	%	3.97
Cc1ncc(CN(C)C(=O)Nc2cccc(CN3CCOC3=O)c2)s1	%	56.2
CC(C)Cn1cncc1CNC1CCSC1 (configuration not stated)	%	-18.33
Cc1nnc(NC(=O)NC2CCCc3c2cnn3CCO)s1 (configuration not stated)	%	53.57
Brc1ccc(NCCCOC2CCOCC2)nc1	%	-11.28
Cc1nc(CN2CCCN(C(=O)c3c(C)noc3C)CC2)cs1	%	3.38
CC(C)NC(=O)Nc1ccc(-c2nc3c([nH]2)CCNC3)cc1	%	-35.22
Cc1csc(N2CCCN(C(=O)c3c(C)oc(C)c3C)CC2)n1	%	-1.5
Cc1ccnc(N2Cc3cnn(Cc4ccc(F)cc4)c3C2)n1	%	-38.09
CC(C)N1CCc2c(c(COc3cccnc3)nn2CC2CC2)C1	%	-0.59
O=C(O)c1ccn(COc2c(Cl)cccc2Cl)n1	%	10.62
CS(=O)(=O)CCCNC1(c2ccc(Br)cc2)CCC1	%	55.36
Cc1cc(NC(=O)NC2CCCc3c2cnn3CCO)n(C)n1 (configuration not stated)	%	32.55
CN(C)Cc1cnc2n1CCN(C(=O)NC1CCCC1)CC2	%	16.03
CCc1nsc(N2CCCN(C(=O)c3ccc(CC)o3)CC2)n1	%	-2.93
O=C(NC1CCCCC1)NC1CCCc2c1cnn2CCO (configuration not stated)	%	-39.36
CC(C(=O)N1CCN(Cc2ccc3c(c2)OCO3)CC1)n1ccnc1 (configuration not stated)	%	17.98
Brc1cnc(NCCCOC2CCOCC2)nc1	%	21
CCc1noc(C)c1C(=O)N1CCCN(Cc2csc(C)n2)CC1	%	16.84
CN(C)c1ccc(CNC(=O)NCCc2cccs2)cn1	%	9.17
Cc1noc2nc(C3CC3)c(Cl)c(C(=O)O)c12	%	-7.81
c1cncc(C2COC3(CCN(Cc4ccsc4)CC3)C2)c1 (configuration not stated)	%	32.85
Cc1cc(O)cc(=O)n1CCCC(=O)Nc1n[nH]c2cc(Br)ccc12	%	-14.65
O=C1N(c2cccnc2)CCC12CCCN(Cc1ccoc1)C2 (configuration not stated)	%	16.39
CNc1cc(C)nc(N2Cc3cnn(Cc4ccc(F)cc4)c3C2)n1	%	52.03
Cc1ncc(CN(C)C(=O)Nc2ccc(CN3CCOC3=O)cc2)s1	%	10.61
CCn1cc(NC(=O)NC2CCCc3c2cnn3CCO)cn1 (configuration not stated)	%	56.57
Cc1cc(C)nc(N2Cc3cnn(Cc4ccc(F)cc4)c3C2)n1	%	-51.41
CNC(=O)Cn1nc(C(C)C)c2cnn(C(C)(C)C)c2c1=O	%	-30.6
Cc1c(Cl)c(C(=O)N2C[C@@H](C(=O)O)[C@H](c3cccnc3)C2)nn1C	%	69.71
c1cnc(NCCCOC2CCOCC2)nc1	%	74.34
Cc1cc(C(=O)N2CCn3cc(CN4CCOCC4)nc3C2)no1	%	22.68
CN(C)C(=O)C1CCC2(CCN(Cc3ccc4ccccc4n3)CC2)O1 (configuration not stated)	%	23.26
O=C(Nc1ccc(-c2nc3c([nH]2)CCNC3)cc1)N1CCCC1	%	-15.03
O=C(NCC(F)F)c1cc(-c2ccccc2)nc2ncnn12	%	5.88
CCCc1cc(=O)[nH]c(-c2cccc(CN3CCN4CCCC4C3)c2)n1 (configuration not stated)	%	-19.98
Cc1ccc(CN2CC3(CCN(S(=O)(=O)c4ccccc4)C3)C2)o1	%	31.5
Cc1cnc(C(=O)N2CCc3c(nc(-c4ccncc4)[nH]c3=O)C2)cn1	%	10.63
CCS(=O)(=O)N1CCC2(CN(Cc3ccc(C)o3)C2)C1	%	54.23
COc1ccccc1[C@@H]1CN(C(=O)c2csc(C)n2)C[C@H]1C(=O)O	%	10.69
O=C(C1CNCCO1)N1CCCC(c2ccccc2)(c2ccccc2)C1 (configuration not stated)	%	42.2
O=S(=O)(c1ccc(-c2nc3c([nH]2)CCNC3)cc1)N1CCCC1	%	52.3
Cc1noc(C)c1C(=O)N1C[C@@H]2CC[C@H]1CN(c1cnccn1)C2	%	20.32

Numbers sourced from ChEMBL document CHEMBL4513216.
